Reference source: paper PMC4800182

# SYSTEM_NAME: rNanB (Streptococcus pneumoniae serotype 4, UniProt Q54727)
# Sequence (Q54727 30-697): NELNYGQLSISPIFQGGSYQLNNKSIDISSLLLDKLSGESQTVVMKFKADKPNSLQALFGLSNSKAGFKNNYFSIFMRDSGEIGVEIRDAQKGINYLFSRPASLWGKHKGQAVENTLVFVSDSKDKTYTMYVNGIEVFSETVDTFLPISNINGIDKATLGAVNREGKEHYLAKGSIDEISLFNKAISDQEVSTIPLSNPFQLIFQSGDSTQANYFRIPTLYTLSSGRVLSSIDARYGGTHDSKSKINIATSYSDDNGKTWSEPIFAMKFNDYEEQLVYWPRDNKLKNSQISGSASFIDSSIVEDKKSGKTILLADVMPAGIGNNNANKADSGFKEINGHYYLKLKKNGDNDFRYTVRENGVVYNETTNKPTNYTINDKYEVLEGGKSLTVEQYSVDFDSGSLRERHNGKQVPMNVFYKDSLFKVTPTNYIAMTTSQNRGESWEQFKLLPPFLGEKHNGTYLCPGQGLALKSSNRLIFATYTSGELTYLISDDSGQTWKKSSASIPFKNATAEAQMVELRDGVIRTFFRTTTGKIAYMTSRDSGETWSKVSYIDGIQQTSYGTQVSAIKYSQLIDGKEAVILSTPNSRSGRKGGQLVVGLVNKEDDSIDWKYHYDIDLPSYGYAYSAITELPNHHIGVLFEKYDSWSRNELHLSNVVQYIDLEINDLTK
MEASURED_ATTRIBUTE: IC50

// output IC50; input CC(=O)N[C@H]1[C@H]([C@H](O)[C@H](O)CO)OC(C(=O)O)=C[C@@H]1N=C(N)N ; system rNanB (Streptococcus pneumoniae serotype 4, UniProt Q54727)
> 100 µM

* * *

Recorded measurements of Inhibitory Concentration of NAIs against rNanA, HA assay, one per entry
# SYSTEM_NAME: rNanA (Streptococcus pneumoniae, UniProt P62575)
# Construct: made in house; host or cells: E. coli
# Sequence (P62575 54-1035): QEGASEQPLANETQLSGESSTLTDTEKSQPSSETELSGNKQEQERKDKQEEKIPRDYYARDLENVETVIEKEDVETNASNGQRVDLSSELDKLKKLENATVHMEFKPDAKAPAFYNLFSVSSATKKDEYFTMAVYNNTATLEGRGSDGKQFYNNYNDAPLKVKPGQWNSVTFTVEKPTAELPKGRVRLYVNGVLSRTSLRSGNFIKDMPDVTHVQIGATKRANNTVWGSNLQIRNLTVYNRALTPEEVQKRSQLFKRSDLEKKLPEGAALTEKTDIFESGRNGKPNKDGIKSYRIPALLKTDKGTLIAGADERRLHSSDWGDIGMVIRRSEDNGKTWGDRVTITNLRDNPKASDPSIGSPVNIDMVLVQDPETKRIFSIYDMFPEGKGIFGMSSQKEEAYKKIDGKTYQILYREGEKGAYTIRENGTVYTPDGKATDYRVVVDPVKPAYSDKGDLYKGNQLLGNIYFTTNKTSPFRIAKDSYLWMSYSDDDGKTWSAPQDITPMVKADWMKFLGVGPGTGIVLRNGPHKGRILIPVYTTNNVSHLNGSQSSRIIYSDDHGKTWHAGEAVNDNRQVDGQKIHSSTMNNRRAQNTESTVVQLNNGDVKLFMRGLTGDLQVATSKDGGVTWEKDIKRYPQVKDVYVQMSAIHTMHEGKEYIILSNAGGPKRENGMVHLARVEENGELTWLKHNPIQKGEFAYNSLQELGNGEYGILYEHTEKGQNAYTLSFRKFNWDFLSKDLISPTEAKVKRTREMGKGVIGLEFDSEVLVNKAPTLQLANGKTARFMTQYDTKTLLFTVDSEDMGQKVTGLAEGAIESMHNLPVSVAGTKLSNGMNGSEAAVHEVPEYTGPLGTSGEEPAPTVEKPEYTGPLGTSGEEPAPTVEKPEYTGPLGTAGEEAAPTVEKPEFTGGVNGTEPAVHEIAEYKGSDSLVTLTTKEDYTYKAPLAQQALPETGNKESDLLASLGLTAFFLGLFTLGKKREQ
# PROCEDURE_SUMMARY: HA assay (hemagglutination of NA-treated human erythrocytes with peanut lectin), inhibition of rNanA
# Type: biochemical, Streptococcus pneumoniae DSM20566
# CONDITION: 1 h incubation
Lab book: enter the figure in µM, no units written.

# MOLECULE, SYSTEM_NAME, RESULT_VALUE
data = [
    ("CC(=O)N[C@H]1[C@H]([C@H](O)[C@H](O)CO)OC(C(=O)O)=C[C@@H]1O [DANA]", "rNanA (Streptococcus pneumoniae, UniProt P62575)", 100.0),
    ("O=C(CCc1ccccc1)C[C@@H]1C[C@@H](c2ccccc2)c2c(cc(/C=C/c3ccccc3)oc2=O)O1 [Katsumadain A, katsumadain A]", "rNanA (Streptococcus pneumoniae, UniProt P62575)", 3.2),
]

Query Inhibitory Concentration of NAIs against rNanA, HA assay for COc1cc2oc(-c3ccc(O)cc3O)c(CC=C(C)C)c(=O)c2c(O)c1/C=C/C(C)C [Artocarpin]
10.0
